Test system: MDA-MB-453 cells
Assay: Cytotoxicity assay (WST-1 cell viability)
Details: Homo sapiens, MDA-MB-453, read-out: IC50 (cytotoxicity), MDA-MB-453 after GSH depletion with BSO (Example 1)
measuredParameter: IC50 (µM)
One number for each entry, in µM.

What value of IC50 on MDA-MB-453 cells does NC(=O)c1ccc(I)c([N+](=O)[O-])c1 [Iniparib, 4-iodo-3-nitrobenzamide] have?
17.8

###

System: HCT116 cells
Experiment: Cytotoxicity assay (WST-1 cell viability)
Format: cell-based, human
Conditions: Homo sapiens, HCT-116, read-out: IC50 (cytotoxicity), HCT116 after GSH depletion with BSO (Example 1)
measuredParameter: IC50 (µM)
Give bare numbers, in µM.

Which measured IC50 value corresponds to NC(=O)c1ccc(I)c([N+](=O)[O-])c1 [Iniparib, 4-iodo-3-nitrobenzamide] ?
8.4
